Task for the reader: assign each of the following molecules its reported IC50.
- Tested target: Hsp90 (Homo sapiens)
- Construct: purchased Stressgen SPP-776
- Assay method text: Fluorescence Polarization (FP) binding, GM-BODIPY displacement from Hsp90
- Condition description: GM-BODIPY tracer, 4° C. for 4 hours

Can you look up the measured IC50 of CC(C)c1cc(-n2nncc2-c2ccc(CN3CCOCC3)cc2)c(O)cc1O for me? < 50 nM

Param item: CCNC(=O)c1nnn(-c2cc(C(C)C)c(O)cc2O)c1-c1ccc(CNC2CCN(C)CC2)cc1 < 50 nM

# repeat for CCNC(=O)c1nnn(-c2cc(C(C)C)c(O)cc2O)c1-c1ccc(CN2CCNCC2)cc1 < 50 nM

Thanks! And CCNC(=O)c1nnn(-c2cc(C(C)C)c(O)cc2O)c1-c1ccc(CNCCN2CCOCC2)cc1 ? < 50 nM

Also CCNC(=O)c1nnn(-c2cc(C(C)C)c(O)cc2O)c1NCc1ccc(N2CCOCC2)cc1 ? < 50 nM

What do we get for CCNC(=O)c1nnn(-c2cc(C(C)C)c(O)cc2O)c1-c1ccc(CN2CCCC2)cc1 ? < 50 nM

What about CC(C)c1cc(-n2nnc(C(=O)N[C@H](C(=O)O)C(C)C)c2-c2ccc(CN3CCOCC3)cc2)c(O)cc1O ? 100 to 500 nM

Also need CC(C)c1cc(-n2nncc2-c2ccc(CN3CCN(Cc4ccccc4)CC3)cc2)c(O)cc1O , thanks. < 50 nM

Same again, this time with CCNC(=O)c1nnn(-c2cc(C(C)C)c(O)cc2O)c1-c1ccc(CN2CCOCC2)cc1 < 50 nM

What would you report for CCNC(=O)c1nnn(-c2cc(C(C)C)c(O)cc2O)c1-c1ccc(CNCCCN(CC)CC)cc1 ? < 50 nM

What do you get for CCOC(=O)c1nnn(-c2cc(Cl)c(O)cc2O)c1-c1ccc(F)cc1 [Example 32, reference compound] ? > 500 nM

Next: Oc1cc(O)c(-n2nncc2-c2ccc(F)cc2)cc1Cl [Example 33, reference compound] > 500 nM

Cool, now CCNC(=O)c1nnn(-c2cc(C(C)C)c(O)cc2O)c1-c1ccc(Cn2ccnc2)cc1 < 50 nM

Input CCNC(=O)c1nnn(-c2cc(C(C)C)c(O)cc2O)c1-c1ccc(CNCCN(CC)CC)cc1 < 50 nM

CCNC(=O)c1nnn(-c2cc(C(C)C)c(O)cc2O)c1Nc1ccc(N2CCOCC2)cc1 , same question. 50 to 100 nM

Next up: CCNC(=O)c1nnn(-c2cc(C(C)C)c(O)cc2O)c1-c1ccc(CNC2CCCCC2)cc1 < 50 nM

Same read-out for CCNC(=O)c1nnn(-c2cc(C(C)C)c(O)cc2O)c1-c1ccc(CNCC2CCCCC2)cc1 ? < 50 nM

Also, CCNC(=O)c1nnn(-c2cc(C(C)C)c(O)cc2O)c1-c1ccc(CN2CCCC(O)C2)cc1 (racemic) please. < 50 nM

###

So I've got a bunch of compounds here, and I need their inhibition at 0.5 µM values.
- Tested on: A2780 ovarian
- Assay method text: Sulphorodamine B test at single concentration, A2780
- Format: cell-based
- Condition description: Homo sapiens, 500 nM, 72 h

Observed inhibition at 0.5 µM on A2780 ovarian for CCNC(=O)c1nnn(-c2cc(C(C)C)c(O)cc2O)c1-c1ccc(CN2CCOCC2)cc1 , please. ≥ 50%

Entry to check: CC(C)c1cc(-n2nncc2-c2ccc(CN3CCN(Cc4ccccc4)CC3)cc2)c(O)cc1O ≥ 50%

Again, but for CCNC(=O)c1nnn(-c2cc(C(C)C)c(O)cc2O)c1-c1ccc(CN2CCN(C)CC2)cc1 ≥ 50%
